The measurements presented in this section are drawn from paper PMC7244523.

Target: UniProt:A0A0X8K1J2
Experiment: FRET-based in vitro sortase activity assay, AoSrtA
Format: biochemical
Details: IC50 (A. oris), AoSrtA 10 µM, Abz-LAQTG-Dap(Dnp)-NH2, 1 hour preincubation
Experimental: The ability of the hit molecules to inhibit sortase activity was measured in vitro using an established FRET-based assay[13] that measures the ability of each enzyme to cleave a fluorogenic peptide substrate; Abz-LAQTG-Dap(Dnp)-NH2 and Abz-LPETG-Dap(Dnp)-NH2, substrates for ^AoSrtA and ^SaSrtA, respectively. Each enzyme cleaves between the threonine and glycine bond in these peptides, leading to a measurable increase in fluorescence (see Methods). […]
quantity: pIC50
Formally, pIC50 is defined as -log10 of the concentration c, with c in mol/L.

# count of solved cases: 2
| molecule | pIC50 |
| --- | --- |
| Cc1nc(COc2ccc(F)cc2)sc1CC(=O)Nc1nc2c(s1)CC(C)CC2 (stereo not drawn) | 3.86 |
| COc1ccc2nc(N(Cc3ccccc3)C(=O)c3ccc([N+](=O)[O-])o3)sc2c1 | 3.77 |

Output pIC50 of `CCc1ccc2nc(N(Cc3cccnc3)C(=O)c3ccc([N+](=O)[O-])o3)sc2c1`
4.13

====

Molecular target: AoSrtA (Actinomyces oris)
Sequence (A0A0X8K1J2 entry or part of it): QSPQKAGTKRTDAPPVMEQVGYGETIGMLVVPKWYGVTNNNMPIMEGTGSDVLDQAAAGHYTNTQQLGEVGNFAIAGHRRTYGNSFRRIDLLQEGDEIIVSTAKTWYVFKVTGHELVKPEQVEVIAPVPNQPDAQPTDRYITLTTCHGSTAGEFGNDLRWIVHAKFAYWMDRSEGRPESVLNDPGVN
Experiment: FRET-based in vitro sortase activity assay, AoSrtA
Assay type: biochemical
Settings: IC50 values, range over compounds, range for both AoSrtA and SaSrtA; in µM
Each entry below carries its recorded IC50.

Output IC50 of `CCc1ccc2nc(N(Cc3cccnc3)C(=O)c3ccc([N+](=O)[O-])o3)sc2c1`
73 to 170 µM

Output IC50 of Cc1nc(COc2ccc(F)cc2)sc1CC(=O)Nc1nc2c(s1)CC(C)CC2 (stereo not drawn)
73 to 170 µM

Output IC50 of `COc1ccc2nc(N(Cc3ccccc3)C(=O)c3ccc([N+](=O)[O-])o3)sc2c1`
73 to 170 µM

====

Test system: A. oris MG-1
Experiment: Minimum inhibitory concentration, MG-1 strain
Assay type: cell-based
Conditions: Actinomyces oris, MG1; BHI, 96-well plates, 18 hours
quantity: MIC (µg/mL)
Please state the figure in µg/mL; there is no need to write the unit.

# count of solved cases: 2
| compound | unit tag | MIC |
| --- | --- | --- |
| Cc1cc(NS(=O)(=O)c2ccc(C(C)(C)C)cc2)n(C2CCS(=O)(=O)C2)n1 (stereo not drawn) | µg/mL | 0.5 |
| Cc1nc(COc2ccc(F)cc2)sc1CC(=O)Nc1nc2c(s1)CC(C)CC2 (stereo not drawn) | µg/mL | 2.1 |

Output MIC of `COc1ccc2nc(N(Cc3ccccc3)C(=O)c3ccc([N+](=O)[O-])o3)sc2c1`
16.4

Output MIC of `CCc1ccc2nc(N(Cc3cccnc3)C(=O)c3ccc([N+](=O)[O-])o3)sc2c1`
8.2

Output MIC of `Cc1ccc(S(=O)(=O)Cc2nc3cc(-c4ccccc4)sc3c(=O)[nH]2)cc1`
2

Output MIC of `O=C(c1cc(-c2ccc(F)cc2)n[nH]1)N1CC(c2nc(-c3ccccc3)no2)C1`
1

====

Target: SaSrtA (Staphylococcus aureus, UniProt Q2FV99)
Sequence (Q2FV99 whole entry): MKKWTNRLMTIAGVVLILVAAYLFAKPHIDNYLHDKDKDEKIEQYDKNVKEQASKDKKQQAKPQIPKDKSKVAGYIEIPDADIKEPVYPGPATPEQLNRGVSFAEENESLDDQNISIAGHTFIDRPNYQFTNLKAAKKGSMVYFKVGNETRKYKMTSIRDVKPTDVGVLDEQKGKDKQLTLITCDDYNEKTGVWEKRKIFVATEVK
quantity: pIC50
Formally, pIC50 is defined as -log10 of the concentration c, with c in mol/L.

# count of solved cases: 2
| compound | observed result |
| --- | --- |
| Cc1nc(COc2ccc(F)cc2)sc1CC(=O)Nc1nc2c(s1)CC(C)CC2 (stereo not drawn) [Compound 6] | 3.90 |
| Cc1ccc(S(=O)(=O)Cc2nc3cc(-c4ccccc4)sc3c(=O)[nH]2)cc1 [Compound 1] | 3.70 |

For SaSrtA (Staphylococcus aureus, UniProt Q2FV99), give pIC50 of the listed compound: CCc1ccc2nc(N(Cc3cccnc3)C(=O)c3ccc([N+](=O)[O-])o3)sc2c1 [Compound 3]
3.66

For SaSrtA (Staphylococcus aureus, UniProt Q2FV99), give pIC50 of the listed compound: COc1ccc2nc(N(Cc3ccccc3)C(=O)c3ccc([N+](=O)[O-])o3)sc2c1 [Compound 4]
3.31

For SaSrtA (Staphylococcus aureus, UniProt Q2FV99), give pIC50 of the listed compound: O=C(c1cc(-c2ccc(F)cc2)n[nH]1)N1CC(c2nc(-c3ccccc3)no2)C1 [Compound 5]
3.55
